Record form. Attribute: inhibition. Fill in for each entry.
- TEST_DETAILS: polyglutamine-triggered caspase-3 activation inhibitors, cell-based (AID 1583)
- ASSAY_SETUP: polyglutamine-induced caspase-3 activation, cell assay; stronger effect = higher value;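 tested at 10 µM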
Numbers only; they are read as %.

Query string: GET /values?readout=inhibition&item= CN(N=O)C(=O)N[C@@H]1[C@@H](O)[C@H](O)[C@@H](CO)O[C@@H]1O
Result string: -0.83

Query string: GET /values?readout=inhibition&item= CC(=O)OCC(=O)[C@@]1(O)CCC2C3CCC4=CC(=O)CC[C@]4(C)C3[C@@H](O)C[C@@]21C (stereo partly specified)
Result string: 6.86

Query string: GET /values?readout=inhibition&item= CN1C(CC(=O)c2ccccc2)CCCC1CC(O)c1ccccc1 (stereo unspecified)
Result string: 17.8

Query string: GET /values?readout=inhibition&item= Cc1ccc(O)cc1
Result string: 26.8

Query string: GET /values?readout=inhibition&item= CSCCC(N)C(=O)NC(CC(C)C)C(=O)NC(Cc1ccccc1)C(=O)O (stereo unspecified)
Result string: 18.9

Query string: GET /values?readout=inhibition&item= C1N2CN3CN1CN(C2)C3
Result string: 10.1

Query string: GET /values?readout=inhibition&item= CCN(CC)CCOc1ccc2c(c1)C(=O)c1cc(OCCN(CC)CC)ccc1-2
Result string: -90.6

Query string: GET /values?readout=inhibition&item= CCN(CC)Cc1ccc(Nc2ccnc3cc(Cl)ccc23)cc1O
Result string: -50.2

Query string: GET /values?readout=inhibition&item= Cn1nnnc1SCC1=C(C(=O)O)N2C(=O)C(NC(=O)C(OC=O)c3ccccc3)C2SC1 (stereo unspecified)
Result string: 20.1

Query string: GET /values?readout=inhibition&item= O=C(O)c1cc2cc(Cc3cccnc3)ccc2o1
Result string: 22.5

Query string: GET /values?readout=inhibition&item= CN1CCN(C2=Nc3cc(Cl)ccc3Nc3ccccc32)CC1
Result string: -23.8
